- Test system: TAB113
- TEST: qHTS profiling for inhibitors of Plasmodium falciparum proliferation (AID 504749); note: nearly all actives have a fitted effect of over 60% in size; note: potency is the fitted concentration of half-maximal effect
- SETTINGS: P. falciparum in erythrocytes, SYBR Green DNA, 72 h; series mostly up to 28.7 µM
Inconclusive results are not listed. The source made the active and inactive calls. Calls come from the whole dose curve; as a rule, active = well fitted inhibition curve with a large enough effect; inconclusive = small, poorly fitted or top-dose-only effect; inactive = flat fitted curve, though single readings scatter.
ASSAY METRIC: Potency

Param readout = Potency; param system = TAB113; param query = `Cc1cccc([C@H](C)c2cnc[nH]2)c1C` ; response: value
inactive

Param readout = Potency; param system = TAB113; param query = `CCN(CC)CCO[C@H]1CC[C@@]2(C)C(=CC[C@@H]3[C@H]2CC[C@]2(C)C(=O)CC[C@H]32)C1` ; response: value
inactive

Param readout = Potency; param system = TAB113; param query = `CCCCCCCCCC[N+](C)(C)CCCCCCCCCC` ; response: value
5.01 µM (active)
